The measurements presented in this section are drawn from a melting point compilation (Tetko et al.; mined from patent text by program, amines drawn as free bases though some values may be those of a salt).

readoutName: melting point

Recorded results for 5 molecules are shown here.
N#CC(C=O)c1cccc(C(F)(F)F)c1 (centres undefined): 103 to 106 °C
O=C(C=C(c1ccccc1)c1ccccc1)NCCCCc1cccnc1: 78 to 80 °C
Clc1cccc(N2CCN(Cc3cn4cc(Cl)ccc4n3)CC2)c1: 148 to 149 °C
CC(=O)N1CCC(OC(CO)c2ccccc2)CC1 (centres undefined): 92 to 94 °C
COc1ccc(CC(=O)Nc2ccc3c(c2)[C@@H](OCCc2ccccc2)[C@H](O)C(C)(C)O3)cc1 (relative stereo): 161 to 162 °C

What does the data say about its melting point? Entry: `O=C1CC(c2ccccc2O)=Nc2ccc(N3CCOCC3)cc21`
290 to 291 °C

What does the data say about its melting point? Entry: `CCOC(=O)c1cn(-c2cc(NC=O)c(F)cc2F)c2c(F)c(F)c(F)c(NCc3ccccc3)c2c1=O`
151 to 156 °C

What does the data say about its melting point? Entry: `CC(C)OC(=O)N[C@H]1CC[C@H](CCN2CCN(c3cccc(Cl)c3Cl)CC2)CC1`
128 to 131 °C

What does the data say about its melting point? Entry: `COc1cc2c(cc1OC)CN(CCCc1ccc(NC(=O)c3cc4ccccc4cn3)cc1)CC2`
146 °C

What does the data say about its melting point? Entry: `COc1ccc(Cl)cc1[C@]1(F)C(=O)N(C(=O)N[C@H](C(=O)O)C(C)C)c2cc(C(F)(F)F)ccc21`
100 to 104 °C
